Settings: in 2-ethylhexanol, 303.15 K
measure_name: solubility (mole fraction)
Answer as a number with no unit attached.

Query block: State the recorded solubility (mole fraction) for this entry: C[C@H]1O[C@@H](n2cc(F)c(=O)[nH]c2=O)[C@H](O)[C@@H]1O
Result block: 9.63e-05

----------
Settings: in methanol, 328.15 K
measure_name: solubility (mole fraction)

Query block: State the recorded solubility (mole fraction) for this entry: C[C@H]1O[C@@H](n2cc(F)c(=O)[nH]c2=O)[C@H](O)[C@@H]1O
Result block: 0.0133

----------
Conditions: in 2-ethylhexanol, 318.15 K
measure_name: solubility (mole fraction)
Answer as a number with no unit attached.

Query block: State the recorded solubility (mole fraction) for this entry: C[C@H]1O[C@@H](n2cc(F)c(=O)[nH]c2=O)[C@H](O)[C@@H]1O
Result block: 0.000252

This collection of values is drawn from BigSolDB 2.1.
